- Tgt: CYP3A4 (Homo sapiens)
- Sequence (P08684 whole entry): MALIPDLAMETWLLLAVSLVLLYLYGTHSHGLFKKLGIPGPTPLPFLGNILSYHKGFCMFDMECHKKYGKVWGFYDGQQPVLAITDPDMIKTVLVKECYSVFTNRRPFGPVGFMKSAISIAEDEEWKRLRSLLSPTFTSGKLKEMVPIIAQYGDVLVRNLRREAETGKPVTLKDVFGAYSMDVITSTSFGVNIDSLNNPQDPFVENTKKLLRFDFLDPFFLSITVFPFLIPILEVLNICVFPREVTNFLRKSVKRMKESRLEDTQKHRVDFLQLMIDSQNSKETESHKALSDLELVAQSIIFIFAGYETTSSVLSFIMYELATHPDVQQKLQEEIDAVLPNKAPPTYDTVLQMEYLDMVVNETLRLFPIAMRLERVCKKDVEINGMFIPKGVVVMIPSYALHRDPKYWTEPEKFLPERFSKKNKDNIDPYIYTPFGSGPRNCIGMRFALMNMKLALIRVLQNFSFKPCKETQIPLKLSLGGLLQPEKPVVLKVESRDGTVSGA
- Assay notes: Ratio of IC50 for human liver microsome CYP3A4 using testosterone as substrate in absence of NADPH to IC50 for human liver microsome CYP3A4 using testosterone as substrate in presence of NADPH
- Condition info: liver microsomes, probe testosterone, read-out: Ratio IC50
Metric: IC50 shift

"C#CCN(Cc1ccc(F)cc1)c1cc(C)c(NC(=O)OC)c(C)c1" yielded IC50 shift of < 1.5

----------
- Tgt: Cytochrome P450 3A4 (Homo sapiens, UniProt P08684)
- Sequence (P08684 whole entry): as the sequence (P08684 whole entry) above
- Assay notes: Time dependent inhibition of human liver microsome CYP3A4 preincubated for 0.5 hrs in presence or absence of NADPH followed by testosterone addition by LC-MS/MS method
- Format: ADME, microsomes
Metric: IC50

"C#CCN(Cc1ccc(F)cc1)c1cc(C)c(NC(=O)OC)c(C)c1" yielded IC50 of > 50 µM

----------
- Tgt: CYP2C8 (Homo sapiens, UniProt P10632)
- Sequence (P10632 whole entry): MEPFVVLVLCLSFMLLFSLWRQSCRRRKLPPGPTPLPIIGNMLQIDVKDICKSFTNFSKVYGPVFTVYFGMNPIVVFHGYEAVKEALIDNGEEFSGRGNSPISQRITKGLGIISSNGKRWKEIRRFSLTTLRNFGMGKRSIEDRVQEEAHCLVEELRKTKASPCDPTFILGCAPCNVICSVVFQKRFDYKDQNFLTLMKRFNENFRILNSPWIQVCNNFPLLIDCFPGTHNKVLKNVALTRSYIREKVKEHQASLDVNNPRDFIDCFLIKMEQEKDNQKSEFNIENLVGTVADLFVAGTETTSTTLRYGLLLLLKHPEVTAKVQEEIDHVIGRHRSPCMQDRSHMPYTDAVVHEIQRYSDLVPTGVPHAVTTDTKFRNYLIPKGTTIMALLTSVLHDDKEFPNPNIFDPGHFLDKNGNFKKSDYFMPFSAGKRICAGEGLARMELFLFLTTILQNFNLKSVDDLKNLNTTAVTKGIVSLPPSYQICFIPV
- Assay notes: Ratio of IC50 for human liver microsome CYP2C8 in absence of NADPH to IC50 for human liver microsome CYP2C8 in presence of NADPH
- Condition info: liver microsomes, read-out: Ratio IC50
Metric: IC50 shift

"C#CCN(Cc1ccc(F)cc1)c1cc(C)c(NC(=O)OC)c(C)c1" yielded IC50 shift of > 1.5

----------
- Tgt: Cytochrome P450 2B6 (Homo sapiens, UniProt P20813)
- Sequence (P20813 whole entry): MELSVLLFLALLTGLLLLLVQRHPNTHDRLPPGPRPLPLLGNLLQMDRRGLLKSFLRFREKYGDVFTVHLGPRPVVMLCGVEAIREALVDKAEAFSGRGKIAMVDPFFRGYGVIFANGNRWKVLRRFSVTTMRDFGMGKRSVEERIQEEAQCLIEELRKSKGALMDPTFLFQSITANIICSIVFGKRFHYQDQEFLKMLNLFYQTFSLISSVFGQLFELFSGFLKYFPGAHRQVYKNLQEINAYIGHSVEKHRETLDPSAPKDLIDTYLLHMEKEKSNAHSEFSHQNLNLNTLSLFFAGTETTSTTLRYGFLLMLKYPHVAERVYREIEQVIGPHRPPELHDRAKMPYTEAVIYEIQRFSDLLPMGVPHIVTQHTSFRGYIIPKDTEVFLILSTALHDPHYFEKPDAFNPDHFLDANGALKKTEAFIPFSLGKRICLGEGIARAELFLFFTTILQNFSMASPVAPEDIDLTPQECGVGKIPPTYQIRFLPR
- Assay notes: Time dependent inhibition of human liver microsome CYP2B6 preincubated for 0.5 hrs in presence of NADPH followed by substrate addition by LC-MS/MS method
- Type: ADME, microsomes
Metric: pIC50
Conceptually, pIC50 converts a concentration in mol/L into minus its log10.

"C#CCN(Cc1ccc(F)cc1)c1cc(C)c(NC(=O)OC)c(C)c1" yielded pIC50 of 5.24

----------
- Assay notes: AUC(0 to t) in Sprague-Dawley rat at 20 mg/kg, po measured upto 24 hrs by LC-MS/MS method
- Format: ADME, organism-based
- Parameters: dose 20 mg/kg, time < 24 hrs, route po
- Condition info: in vivo
Metric: AUC(0-t) at 24 h (ng·h/mL)
Please state the figure in ng·h/mL; there is no need to write the unit.

"C#CCN(Cc1ccc(F)cc1)c1cc(C)c(NC(=O)OC)c(C)c1" yielded AUC(0-t) at 24 h of 1920

----------
- Assay notes: AUC(0 to t) in Kunming mouse brain at 5 mg/kg, po measured upto 24 hrs by LC-MS/MS method
- Format: ADME, organism-based
- Parameters: dose 5 mg/kg, time < 24 hrs, route po
Metric: AUC(0-t) at 24 h (ng·h/mL)
Please state the figure in ng·h/mL; there is no need to write the unit.

"C#CCN(Cc1ccc(F)cc1)c1cc(C)c(NC(=O)OC)c(C)c1" yielded AUC(0-t) at 24 h of 716

----------
- Assay notes: AUC(0 to t) in Sprague-Dawley rat at 2 mg/kg, po measured upto 24 hrs by LC-MS/MS method
- Type: ADME, organism-based
- Design: dose 2 mg/kg, time < 24 hrs, route po
- Condition info: in vivo
Metric: AUC(0-t) at 24 h (ng·h/mL)
Please state the figure in ng·h/mL; there is no need to write the unit.

"C#CCN(Cc1ccc(F)cc1)c1cc(C)c(NC(=O)OC)c(C)c1" yielded AUC(0-t) at 24 h of 247
